Values from patent US6737383B1

- Tested on: rape
- protocolDescription: Test B pre/postemergence rape
- Format: in vivo, Brassica napus
- statedConditions: Rate 125 g/ha; Preemergence; scale of 0 to 10 where 0 is no effect and 10 is complete control
- Procedure: […] At the same time, these crop and weed species were also treated with postemergence applications of test chemicals formulated in the same manner. […] Treated plants and controls were maintained in a greenhouse for twelve to sixteen days, after which all species were compared to controls and visually evaluated. […]
Known Rape plant response rating of a selection of molecules

// worked examples, Rape plant response rating included
{"molecule": "CC(C)N(C(=O)n1oc(=O)n(C2CCCC2)c1=O)c1ccc(F)cc1F [Compound 284]", "Rape plant response rating": 2}
{"molecule": "CC(C)N(C(=O)n1oc(=O)n(CC2CC2)c1=O)c1ccc(F)cc1 [Compound 251]", "Rape plant response rating": 9}
{"molecule": "CC(C)N(C(=O)n1oc(=O)n(C2CC2)c1=O)c1ccc(Cl)cc1 [Compound 241]", "Rape plant response rating": 0}
{"molecule": "C=C(Cn1c(=O)on(C(=O)N(c2ccc(F)cc2)C(C)C)c1=O)C[Si](C)(C)C [Compound 256]", "Rape plant response rating": 0}
{"molecule": "CC(C)N(C(=O)n1oc(=O)n(CC2(C)COC2)c1=O)c1ccc(F)cc1 [Compound 226]", "Rape plant response rating": 0}
{"molecule": "Cc1ccccc1-n1c(=O)on(C(=O)N(c2ccc(N(C)C)cc2)C(C)C)c1=O [Compound 237]", "Rape plant response rating": 0}

Below: the item to evaluate.
Q: Requested read-out: Rape plant response rating. Entry: CCCCCC#CCn1c(=O)on(C(=O)N(c2ccc(F)cc2)C(C)C)c1=O [Compound 254]
A: 0
